Cited source for all entries: patent US20220296595A1

target: CDK2/CyclinE1 (Homo sapiens, UniProt P24941); construct: purchased SignalChem C29-18G; test: Assay for inhibition of CDK2/CyclinE1 (Caliper microfluidic kinase assay); type: biochemical; details: CDK2/CyclinE1, 100 μM ATP; read-out: CDK2 IC50
measurement type: IC50

In the examples that follow, each entry is paired with its recorded IC50.
molecule	system under test	measurement type	obs value
CC(C)n1cnc2c(F)nc(-c3ccnc(Nc4ccc(N5CCCNC5=O)cn4)n3)cc21 [compound 275]	CDK2/CyclinE1 (Homo sapiens, UniProt P24941)	IC50	0.1 to 1 µM
CC(C)c1cnn2ccc(-c3ccnc(Nc4ccc(N5CCCNCC5=O)cn4)n3)cc12 [compound 30]	CDK2/CyclinE1 (Homo sapiens, UniProt P24941)	IC50	0.01 to 0.1 µM
CC(C)c1cnn2ccc(-c3ccnc(Nc4ccc(N5CCNC5=O)cn4)n3)cc12 [compound 163]	CDK2/CyclinE1 (Homo sapiens, UniProt P24941)	IC50	0.01 to 0.1 µM

// next item, IC50 requested
Given item CCN1CCN(c2ccc(Nc3nccc(-c4cc5c(ncn5C(C)C)c(F)n4)n3)nc2)C(=O)C1 [compound 274] , the value recorded as its IC50 is 0.1 to 1 µM
